FYI, the data here is from ChEMBL document CHEMBL1125832.

Reported Ki by item:
- experimental_system: Adrenergic receptor alpha-2 (Rattus norvegicus, UniProt P22086+P19328+P22909)
- protocol_notes: Binding affinity towards alpha-2 adrenergic receptor using [3H]rauwolscine as radioligand in competitive binding assay
- Format: protein assay
measure_name: Ki (nM)

[[record]]
compound = "NC[C@@H]1OC(C2CCCCC2)Cc2c1ccc(O)c2O (stereo partly specified)"
measure_name = "Ki"
recorded_measurement = 271

[[record]]
compound = "CC(C)(C)C1Cc2c(ccc(O)c2O)[C@H](CN)O1 (stereo partly specified)"
measure_name = "Ki"
recorded_measurement = 450

[[record]]
compound = "NC[C@@H]1O[C@H](c2ccccc2)Cc2c1ccc(O)c2O"
measure_name = "Ki"
recorded_measurement = 40

[[record]]
compound = "C=CCNC[C@@H]1OC(C2CCCCC2)Cc2c1ccc(O)c2O (stereo partly specified)"
measure_name = "Ki"
recorded_measurement = 2200

[[record]]
compound = "NC[C@@H]1OC(c2ccccc2)Cc2c1ccc(O)c2O (stereo partly specified)"
measure_name = "Ki"
recorded_measurement = 122

[[record]]
compound = "NC[C@H]1O[C@@H](c2ccccc2)Cc2c1ccc(O)c2O"
measure_name = "Ki"
recorded_measurement = 2500


----------
- experimental_system: UniProtKB P61169
- Sequence (P61169 whole entry): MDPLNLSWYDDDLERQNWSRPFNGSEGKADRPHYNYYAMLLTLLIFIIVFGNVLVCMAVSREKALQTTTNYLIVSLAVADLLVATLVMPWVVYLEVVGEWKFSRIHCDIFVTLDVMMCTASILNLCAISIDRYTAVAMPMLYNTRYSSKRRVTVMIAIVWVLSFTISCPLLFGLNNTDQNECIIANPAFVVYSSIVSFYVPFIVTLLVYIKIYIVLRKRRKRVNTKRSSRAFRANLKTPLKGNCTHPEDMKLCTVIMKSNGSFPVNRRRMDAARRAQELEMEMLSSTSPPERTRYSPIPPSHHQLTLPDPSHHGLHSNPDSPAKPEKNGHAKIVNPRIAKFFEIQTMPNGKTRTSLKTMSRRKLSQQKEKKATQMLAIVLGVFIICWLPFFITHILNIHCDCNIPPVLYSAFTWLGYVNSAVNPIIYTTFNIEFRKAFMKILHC
- protocol_notes: Binding affinity using [3H]-spiperone radioligand competitive binding assay against dopamine receptor D2
Items are presented alongside their recorded Ki.
measure_name: Ki

[[record]]
compound = "CC(C)(C)C1Cc2c(ccc(O)c2O)[C@H](CN)O1 (stereo not given in full)"
recorded_measurement = "8190 nM"

[[record]]
compound = "NC[C@@H]1OC2(CCCCC2)Cc2c1ccc(O)c2O"
recorded_measurement = "4680 nM"

[[record]]
compound = "COc1ccc(CC2Cc3c(ccc(O)c3O)[C@H](CN)O2)cc1 (stereo not given in full)"
recorded_measurement = "2710 nM"

[[record]]
compound = "NC[C@@H]1OC(c2ccc(Br)cc2)Cc2c1ccc(O)c2O (stereo not given in full)"
recorded_measurement = "2090 nM"

[[record]]
compound = "C#CCN(C)C[C@@H]1OC(C2CCCCC2)Cc2c1ccc(O)c2O (stereo not given in full)"
recorded_measurement = "> 10000 nM"

[[record]]
compound = "NC[C@@H]1OC(Cc2ccccc2)Cc2c1ccc(O)c2O (stereo not given in full)"
recorded_measurement = "1470 nM"

[[record]]
compound = "CCCCCCC1Cc2c(ccc(O)c2O)[C@H](CN)O1 (stereo not given in full)"
recorded_measurement = "5540 nM"

[[record]]
compound = "CNC[C@@H]1OC(C2CCCCC2)Cc2c1ccc(O)c2O (stereo not given in full)"
recorded_measurement = "724 nM"

[[record]]
compound = "NC[C@@H]1OC(c2ccc(I)cc2)Cc2c1ccc(O)c2O (stereo not given in full)"
recorded_measurement = "1050 nM"

[[record]]
compound = "NC[C@H]1O[C@@H](c2ccccc2)Cc2c1ccc(O)c2O"
recorded_measurement = "4610 nM"

[[record]]
compound = "CC[C@@H]1Cc2c(ccc(O)c2O)[C@H](CN)O1"
recorded_measurement = "3530 nM"

[[record]]
compound = "NC[C@@H]1OC(C2CCCCCCC2)Cc2c1ccc(O)c2O (stereo not given in full)"
recorded_measurement = "342 nM"

[[record]]
compound = "Oc1ccc2c(c1O)CC(C1CCCCC1)O[C@H]2CNCc1ccccc1 (stereo not given in full)"
recorded_measurement = "2450 nM"

[[record]]
compound = "NC[C@@H]1OCCc2c1ccc(O)c2O"
recorded_measurement = "4610 nM"

[[record]]
compound = "C#CCC1Cc2c(ccc(O)c2O)[C@H](CN)O1 (stereo not given in full)"
recorded_measurement = "1070 nM"

[[record]]
compound = "COc1cccc(C2Cc3c(ccc(O)c3O)[C@H](CN)O2)c1 (stereo not given in full)"
recorded_measurement = "764 nM"

[[record]]
compound = "NC[C@@H]1OC(C(c2ccccc2)c2ccccc2)Cc2c1ccc(O)c2O (stereo not given in full)"
recorded_measurement = "2610 nM"

[[record]]
compound = "CCCCC1Cc2c(ccc(O)c2O)[C@H](CN)O1 (stereo not given in full)"
recorded_measurement = "825 nM"

[[record]]
compound = "C#CCNC[C@@H]1OC(C2CCCCC2)Cc2c1ccc(O)c2O (stereo not given in full)"
recorded_measurement = "11500 nM"

[[record]]
compound = "NC[C@@H]1OC(CC2CCCC2)Cc2c1ccc(O)c2O (stereo not given in full)"
recorded_measurement = "776 nM"

[[record]]
compound = "NC[C@@H]1OC(c2cccc(O)c2)Cc2c1ccc(O)c2O (stereo not given in full)"
recorded_measurement = "590 nM"

[[record]]
compound = "NC[C@@H]1OC(CCc2ccccc2)Cc2c1ccc(O)c2O (stereo not given in full)"
recorded_measurement = "670 nM"

[[record]]
compound = "OCCCNC[C@@H]1OC(C2CCCCC2)Cc2c1ccc(O)c2O (stereo not given in full)"
recorded_measurement = "12300 nM"

[[record]]
compound = "NC[C@@H]1OC(COCc2ccccc2)Cc2c1ccc(O)c2O (stereo not given in full)"
recorded_measurement = "386 nM"

[[record]]
compound = "C=CCN(C)C[C@@H]1OC(C2CCCCC2)Cc2c1ccc(O)c2O (stereo not given in full)"
recorded_measurement = "2600 nM"


----------
Documented pKi across a set of compounds
- experimental_system: UniProtKB P19327
- Sequence (P19327 whole entry): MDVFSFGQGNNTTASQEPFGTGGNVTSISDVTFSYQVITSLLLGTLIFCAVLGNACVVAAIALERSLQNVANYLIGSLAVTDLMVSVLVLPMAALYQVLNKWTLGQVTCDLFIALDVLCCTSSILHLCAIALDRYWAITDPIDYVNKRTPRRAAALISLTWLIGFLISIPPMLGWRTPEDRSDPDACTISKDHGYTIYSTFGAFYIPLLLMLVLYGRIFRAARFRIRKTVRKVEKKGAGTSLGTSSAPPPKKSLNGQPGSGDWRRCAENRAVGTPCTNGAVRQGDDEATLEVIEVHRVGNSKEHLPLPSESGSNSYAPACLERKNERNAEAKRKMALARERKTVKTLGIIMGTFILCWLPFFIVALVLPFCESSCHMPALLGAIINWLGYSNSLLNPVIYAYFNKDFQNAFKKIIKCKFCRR
- protocol_notes: Binding affinity towards 5-hydroxytryptamine 1A receptor using [3H]8-OH-DPAT as radioligand in competitive binding assay
pKi: −log10 of the molar value.
measure_name: pKi

[[record]]
compound = "NC[C@@H]1O[C@H](c2ccccc2)Cc2c1ccc(O)c2O"
value_relation_sign = "="
recorded_measurement = 5.59

[[record]]
compound = "NC[C@@H]1OC(C2CCCCC2)Cc2c1ccc(O)c2O (stereo not given in full)"
value_relation_sign = "<"
recorded_measurement = 4.70

[[record]]
compound = "C=CCNC[C@@H]1OC(C2CCCCC2)Cc2c1ccc(O)c2O (stereo not given in full)"
value_relation_sign = "<"
recorded_measurement = 4.70

[[record]]
compound = "NC[C@@H]1OC(c2ccccc2)Cc2c1ccc(O)c2O (stereo not given in full)"
value_relation_sign = "="
recorded_measurement = 4.74

[[record]]
compound = "NC[C@H]1O[C@@H](c2ccccc2)Cc2c1ccc(O)c2O"
value_relation_sign = "<"
recorded_measurement = 4.70


----------
- experimental_system: D(1A) dopamine receptor (Rattus norvegicus)
- Sequence (P18901 whole entry): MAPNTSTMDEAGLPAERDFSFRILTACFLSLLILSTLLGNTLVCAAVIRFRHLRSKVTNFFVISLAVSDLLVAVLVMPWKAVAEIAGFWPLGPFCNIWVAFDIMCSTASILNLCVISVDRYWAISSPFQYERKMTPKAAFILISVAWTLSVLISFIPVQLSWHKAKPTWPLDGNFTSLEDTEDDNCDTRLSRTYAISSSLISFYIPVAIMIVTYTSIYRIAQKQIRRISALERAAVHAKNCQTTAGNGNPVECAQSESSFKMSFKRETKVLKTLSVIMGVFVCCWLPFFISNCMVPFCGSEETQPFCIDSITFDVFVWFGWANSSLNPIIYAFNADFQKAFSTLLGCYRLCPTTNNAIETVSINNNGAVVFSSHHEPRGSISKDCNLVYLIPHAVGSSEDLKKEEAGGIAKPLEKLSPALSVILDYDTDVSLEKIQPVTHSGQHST
- protocol_notes: Binding affinity using [125 I] SCH 23982 radioligand competitive binding assay on dopamine receptor D1
measure_name: Ki (nM)

[[record]]
compound = "NC[C@@H]1OC(COc2ccccc2)Cc2c1ccc(O)c2O (stereo not given in full)"
experimental_system = "D(1A) dopamine receptor (Rattus norvegicus)"
value_relation_sign = "="
recorded_measurement = 374

[[record]]
compound = "NC[C@@H]1OC(C2CCCCCCC2)Cc2c1ccc(O)c2O (stereo not given in full)"
experimental_system = "D(1A) dopamine receptor (Rattus norvegicus)"
value_relation_sign = "="
recorded_measurement = 88.7

[[record]]
compound = "NC[C@@H]1OC(COCc2ccccc2)Cc2c1ccc(O)c2O (stereo not given in full)"
experimental_system = "D(1A) dopamine receptor (Rattus norvegicus)"
value_relation_sign = "="
recorded_measurement = 2290

[[record]]
compound = "C=CCN(C)C[C@@H]1OC(C2CCCCC2)Cc2c1ccc(O)c2O (stereo not given in full)"
experimental_system = "D(1A) dopamine receptor (Rattus norvegicus)"
value_relation_sign = "="
recorded_measurement = 3190

[[record]]
compound = "CCCCCCC1Cc2c(ccc(O)c2O)[C@H](CN)O1 (stereo not given in full)"
experimental_system = "D(1A) dopamine receptor (Rattus norvegicus)"
value_relation_sign = "="
recorded_measurement = 704

[[record]]
compound = "NC[C@@H]1OC(C(c2ccccc2)c2ccccc2)Cc2c1ccc(O)c2O (stereo not given in full)"
experimental_system = "D(1A) dopamine receptor (Rattus norvegicus)"
value_relation_sign = "="
recorded_measurement = 530

[[record]]
compound = "C=CCNC[C@@H]1OC(C2CCCCC2)Cc2c1ccc(O)c2O (stereo not given in full)"
experimental_system = "D(1A) dopamine receptor (Rattus norvegicus)"
value_relation_sign = "="
recorded_measurement = 1540

[[record]]
compound = "Oc1ccc2c(c1O)CC(C1CCCCC1)O[C@H]2CNC1CC1 (stereo not given in full)"
experimental_system = "D(1A) dopamine receptor (Rattus norvegicus)"
value_relation_sign = "="
recorded_measurement = 329

[[record]]
compound = "Oc1ccc2c(c1O)CC(C1CCCCC1)O[C@H]2CNCc1ccccc1 (stereo not given in full)"
experimental_system = "D(1A) dopamine receptor (Rattus norvegicus)"
value_relation_sign = ">"
recorded_measurement = 10000

[[record]]
compound = "COc1cccc(C2Cc3c(ccc(O)c3O)[C@H](CN)O2)c1 (stereo not given in full)"
experimental_system = "D(1A) dopamine receptor (Rattus norvegicus)"
value_relation_sign = "="
recorded_measurement = 310

[[record]]
compound = "CC[C@H]1Cc2c(ccc(O)c2O)[C@H](CN)O1"
experimental_system = "D(1A) dopamine receptor (Rattus norvegicus)"
value_relation_sign = "="
recorded_measurement = 1760

[[record]]
compound = "NC[C@@H]1OC(Cc2ccccc2)Cc2c1ccc(O)c2O (stereo not given in full)"
experimental_system = "D(1A) dopamine receptor (Rattus norvegicus)"
value_relation_sign = "="
recorded_measurement = 443

[[record]]
compound = "NC[C@@H]1OC(CC2CCCC2)Cc2c1ccc(O)c2O (stereo not given in full)"
experimental_system = "D(1A) dopamine receptor (Rattus norvegicus)"
value_relation_sign = "="
recorded_measurement = 30.4

[[record]]
compound = "OCCCNC[C@@H]1OC(C2CCCCC2)Cc2c1ccc(O)c2O (stereo not given in full)"
experimental_system = "D(1A) dopamine receptor (Rattus norvegicus)"
value_relation_sign = "="
recorded_measurement = 3140

[[record]]
compound = "C#CCC1Cc2c(ccc(O)c2O)[C@H](CN)O1 (stereo not given in full)"
experimental_system = "D(1A) dopamine receptor (Rattus norvegicus)"
value_relation_sign = "="
recorded_measurement = 407

[[record]]
compound = "NC[C@@H]1OC(c2ccc(Br)cc2)Cc2c1ccc(O)c2O (stereo not given in full)"
experimental_system = "D(1A) dopamine receptor (Rattus norvegicus)"
value_relation_sign = "="
recorded_measurement = 52

[[record]]
compound = "CCCCC1Cc2c(ccc(O)c2O)[C@H](CN)O1 (stereo not given in full)"
experimental_system = "D(1A) dopamine receptor (Rattus norvegicus)"
value_relation_sign = "="
recorded_measurement = 870

[[record]]
compound = "CC(C)(C)C1Cc2c(ccc(O)c2O)[C@H](CN)O1 (stereo not given in full)"
experimental_system = "D(1A) dopamine receptor (Rattus norvegicus)"
value_relation_sign = "="
recorded_measurement = 31.8

[[record]]
compound = "C#CCN(C)C[C@@H]1OC(C2CCCCC2)Cc2c1ccc(O)c2O (stereo not given in full)"
experimental_system = "D(1A) dopamine receptor (Rattus norvegicus)"
value_relation_sign = "="
recorded_measurement = 2510

[[record]]
compound = "NC[C@@H]1OC(CCc2ccccc2)Cc2c1ccc(O)c2O (stereo not given in full)"
experimental_system = "D(1A) dopamine receptor (Rattus norvegicus)"
value_relation_sign = "="
recorded_measurement = 248

[[record]]
compound = "CC[C@@H]1Cc2c(ccc(O)c2O)[C@H](CN)O1"
experimental_system = "D(1A) dopamine receptor (Rattus norvegicus)"
value_relation_sign = "="
recorded_measurement = 167

[[record]]
compound = "NC[C@@H]1OC(C2CCCCC2)Cc2c1ccc(O)c2O (stereo not given in full)"
experimental_system = "D(1A) dopamine receptor (Rattus norvegicus)"
value_relation_sign = "="
recorded_measurement = 5.4

[[record]]
compound = "COc1ccc(CC2Cc3c(ccc(O)c3O)[C@H](CN)O2)cc1 (stereo not given in full)"
experimental_system = "D(1A) dopamine receptor (Rattus norvegicus)"
value_relation_sign = "="
recorded_measurement = 2650

[[record]]
compound = "C#CCNC[C@@H]1OC(C2CCCCC2)Cc2c1ccc(O)c2O (stereo not given in full)"
experimental_system = "D(1A) dopamine receptor (Rattus norvegicus)"
value_relation_sign = "="
recorded_measurement = 4730

[[record]]
compound = "NC[C@@H]1OCCc2c1ccc(O)c2O"
experimental_system = "D(1A) dopamine receptor (Rattus norvegicus)"
value_relation_sign = "="
recorded_measurement = 1030

